The reported measurements were obtained from PubChem BioAssay AID2060502.

- Test system: 885724-159-R-J1-PDC complex spheroid viability;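 note: spheroids exposed to agents for seven days before readout; percent of vehicle control viability where 100% = DMSO wells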
- experimental_details: Anticancer human tumor 885724-159-R-J1-PDC patient-derived pancreatic adenocarcinoma cell line growth inhibition [GQUAD]
- study_conditions: second compound 1 µM; first compound 0.316 µM; stronger effect = lower value
viability, T/C: recorded values
Record the value in %, omitting the unit from your answer.

## Input Field request: viability, T/C | item: CCCS(=O)(=O)Nc1ccc(F)c(C(=O)c2c[nH]c3ncc(-c4ccc(Cl)cc4)cc23)c1F + Cc1cnc(CNC(=O)c2c(=O)c3ccc(N4CCCN(C)CC4)nc3n3c2sc2ccccc23)cn1
## Output 96

## Input Please answer likewise for COc1cc(C2c3cc4c(cc3C(OC3OC5COC(C)OC5C(O)C3O)C3COC(=O)C23)OCO4)cc(OC)c1O (stereo not drawn) + Cc1[nH]c2ccc(F)cc2c1-c1nc2c3cccnc3c3ncccc3c2[nH]1
## Output 75

Now consider the entry below.
## Input Item O=C(NO)c1cnc(N2CCN(S(=O)(=O)c3ccc4ccccc4c3)CC2)nc1 + CN(C)c1ccc(Nc2c3ccc(NC(=O)CCN4CCCC4)cc3nc3cc(NC(=O)CCN4CCCC4)ccc23)cc1 has what recorded viability, T/C?
## Output 64.2
